The reported measurements were obtained from PubChem BioAssay (NCI).

# Tested on: NCI-H322M lung
# assay_comment: NCI-60 one-dose screen, 48 h
# recorded_conditions: 10 µM unless noted
The panel holds about 83,000 compounds, 20% with a hit somewhere; the sample as a whole holds those more often. The source made the active and inactive calls. How the source made its calls: active means growth percent below 10; inactive means the rest.
Assign a class; possible classes are Y (active), N (inactive)

These solved cases illustrate the format of a correct answer.
>  <compound>
Clc1ccc(Cc2nc3ccccc3s2)cc1

>  <category>
N

$$$$
>  <compound>
CCCCCCCCCCCCCCCCCC1=NCCCN1CCO

>  <category>
N

$$$$
>  <compound>
OC(c1cc(C23CC4CC(CC(C4)C2)C3)nc2c(Cl)cc(Cl)cc12)C1CCCCN1 (stereo unspecified)

>  <category>
Y

$$$$
>  <compound>
Cc1nnc(N/N=C/c2ccc([N+](=O)[O-])o2)[nH]c1=O

>  <category>
N

$$$$
>  <compound>
O=C1C=CC(O)=CC1=P(c1ccccc1)(c1ccccc1)c1ccccc1

>  <category>
N

$$$$

Could you kindly confirm the outcome this assay logged for COC(=O)C(=[N+]=[N-])C(=O)c1ccc([N+](=O)[O-])o1 ?
N

----------
# Test system: COLO 205 colon
# assay_comment: NCI-60 one-dose screen, 48 h (100 = growth as untreated, 0 = no growth, -100 = all killed)
# recorded_conditions: 10 µM unless noted
This is part of a sample that, as a whole, favours compounds with a hit. Of some 83,000 tested, about 20% had one in any assay. Active and inactive are the calls of the source. How the source made its calls: active means growth percent below 10; inactive means the rest.
readout_kind: growth

The following compounds each have a reported value; give each one's growth.
1. O=[N+]([O-])/C(=C/c1ccccc1)c1ccccc1
2. Cc1cc(C(N)=O)cc(C)c1C(=O)OCCCl

1: 112% (inactive); 2: 111% (inactive)

Your task in this section: give growth for each listed record.
1. Clc1ccccc1C(c1ccccc1)(c1ccccc1)n1ccnc1
2. COc1ccc2nc3cc(Cl)ccc3c(NCCCCCN3CCCCC3)c2c1
3. CCNc1nnnn1CC

["24% (inactive)", "-89.4% (active)", "109% (inactive)"]

----------
# Tested on: OVCAR-4 ovarian
# assay_comment: NCI-60 one-dose screen, 48 h (100 = growth as untreated, 0 = no growth, -100 = all killed)
# recorded_conditions: 10 µM unless noted
About 83,000 compounds went through this panel and 20% of them were active in at least one assay; those are over-represented in the sample as a whole.
readout_kind: growth (%)
Give bare numbers, in %.

Count: 3. Required value per item: growth.
1. O=S(=O)(O)c1cnccn1
2. Cc1cc(C)c(C#N)c(Sc2nc(C)c([N+](=O)[O-])c(C)c2C#N)n1
3. CN(C)c1ccc(/C=C/c2ccnc3ccccc23)cc1

1: 113; 2: 66.6; 3: 69.6

Respectfully, I request growth for each entry included below.
1. O=C1/C(=C\c2ccc([N+](=O)[O-])cc2)CS(=O)(=O)C/C1=C/c1ccc([N+](=O)[O-])cc1
2. Cc1cc(I)nc2ccccc12
3. CCOC(=O)C1(C)CCCC1N (configuration not stated)
4. O=C1C(=O)c2cccnc2-c2ncccc21

[-90.2, 112, 99.2, -100]

Please look at the items below and tell me growth for each one, in order.
1. Cn1ccc(=Nc2ccc(NC(=O)c3ccc(N=c4ccn(C)c5ccc([N+](=O)[O-])cc45)cc3)cc2)cc1
2. COc1cc(/C=C/c2ccnc3ccccc23)cc(OC)c1OC
3. CCOc1ccc(C(CN2CCOCC2)C(C)=O)cc1OC (configuration not stated)
4. O=C(c1ccccc1)c1cc2ccccc2oc1=O
5. Nc1cccc2cccc([N+](=O)[O-])c12

[59.4, 54.6, 98.2, 95.2, 94.8]

----------
# Tested on: NCI/ADR-RES ovarian
# assay_comment: NCI-60 one-dose screen, 48 h (100 = growth as untreated, 0 = no growth, -100 = all killed)
# recorded_conditions: 10 µM unless noted
Compounds without any hit were thinned out: in the full panel of roughly 83,000, 20% have a hit.
readout_kind: growth (%)
Answers are plain numbers, in %.

>  <molecule>
S=c1[nH]c2cc(Cl)ccc2s1

>  <system>
NCI/ADR-RES ovarian

>  <readout_kind>
growth

>  <value>
105

$$$$
>  <molecule>
CCCCCCN(CCCCCC)CCCNc1nccc2ccccc12

>  <system>
NCI/ADR-RES ovarian

>  <readout_kind>
growth

>  <value>
19.4

$$$$
>  <molecule>
Oc1ccc2c(c1)CCc1ccccc1-2

>  <system>
NCI/ADR-RES ovarian

>  <readout_kind>
growth

>  <value>
114

$$$$
>  <molecule>
COc1ccc2nc3cc([N+](=O)[O-])ccc3c(NNc3ccccc3)c2c1

>  <system>
NCI/ADR-RES ovarian

>  <readout_kind>
growth

>  <value>
84.6

$$$$
>  <molecule>
O=C(Nc1ccc(Cl)c(Cl)c1)OCc1ccco1

>  <system>
NCI/ADR-RES ovarian

>  <readout_kind>
growth

>  <value>
34.4

$$$$

Which growth is listed for CCCCC(CCc1ccc([N+](=O)[O-])cc1)(C(C)=O)C(=O)OCC (stereo unspecified) ?
104

----------
# Tested on: HS 578T breast
# assay_comment: NCI-60 one-dose screen, 48 h (100 = growth as untreated, 0 = no growth, -100 = all killed)
# recorded_conditions: 10 µM unless noted
This is part of a sample that, as a whole, favours compounds with a hit. Of some 83,000 tested, about 20% had one in any assay.
readout_kind: growth (%)
Answers are plain numbers, in %.

>  <molecule>
CC(C)=CCCC(C)C1=C(O)C(=O)C(C)=CC1=O (configuration not stated)

>  <system>
HS 578T breast

>  <growth, %>
94.4

$$$$

Give measured growth for every item shown.
1. Cc1c(O)ccc(SC#N)c1C
2. COc1cc([C@@H]2c3cc4c(cc3[C@H](OC3OC5COC(c6ccccc6)OC5C(O)C3O)[C@H]3COC(=O)[C@H]23)OCO4)cc(OC)c1OC (some centres not stated)
3. C[n+]1ccccc1C[n+]1ccccc1
4. CC(=O)C1Cc2ccccc2C1=O (configuration not stated)
5. CCCCCCC1N=C(N)N=C(N)N1c1cccc(Cl)c1 (configuration not stated)

124
-30
121
103
55.2

Hi team, please reply with growth for each item in this list.
1. CCCCCCCCCCCCCCCCSC(=NCC)NCC
2. CCSc1nc2ccccc2o1
3. O=C(Cc1nc2cc(Cl)c(Cl)cc2nc1CC(=O)c1cccnc1)c1cccnc1
4. O=[N+]([O-])c1ccc(N2CCN(Cc3ccccc3)CC2)c2c1no[n+]2[O-]
5. Fc1ccc(NCCS)cc1
6. O=Nc1ccc2ccccc2c1O

1: 66.1; 2: 102; 3: 76; 4: 30.5; 5: 115; 6: 51

----------
# Test system: SN12C renal
# assay_comment: NCI-60 one-dose screen, 48 h (100 = growth as untreated, 0 = no growth, -100 = all killed)
# recorded_conditions: 10 µM unless noted
The panel holds about 83,000 compounds, 20% with a hit somewhere; the sample as a whole holds those more often. *1 amine or outer side, *2 acyl side, *3 side chain or, on linkers, in order; H or OH if unused. Where a SMILES comes first, the peptide text is derived from it. [ ]: non-standard residue; d: D form. The star is where a group is joined. X5 = CCC(=O)CC1CC(C)CC(C(=O)[*:2])N1[*:1]; X4 = CCCCCCCCC(C)C(=O)*; Aib = CC(C)(N)C(=O)O; X6 = CC(CN(C)CCO)N*
Answer each item with its documented growth.
Answers are plain numbers, in %.

>  <molecule>
COC(=O)c1nc(=S)[nH]c(C(=O)OC)c1C(=O)c1ccc(Cl)c(Cl)c1

>  <growth / %>
102

$$$$
>  <molecule>
CCc1cccc(CC)c1N1C(=O)C=CC1=O

>  <growth / %>
129

$$$$

For every item below, please supply its growth.
1. CN1CSC(=S)N(Cc2ccccc2)C1
2. CC(=O)C1Cc2ccccc2C1=O (stereo not drawn)
3. Cc1cc(I)nc2ccccc12
4. CCCCCCCCC(C)C(=O)N1CCCC1C(=O)N1C(CC(=O)CC)CC(C)CC1C(=O)NC(C)C(=O)NC(C)(C)C(=O)NC(C)(C)C(=O)NC(C(=O)NC(C)C(=O)NC(C)(C)C(=O)NC(C)(C)C(=O)NC(C)CN(C)CCO)C(C)CC (stereo not drawn) (X4-P[X5]A[Aib][Aib]IA[Aib][Aib]-X6; configuration not given here)
5. CCCc1cc(=O)oc2c3c(c4c(c12)OC(C)(C)CC4)OC(C)[C@H](C)[C@@H]3O (stereo partly drawn)

1. 99.9
2. 98
3. 109
4. -78.5
5. 81

----------
# Test system: UO-31 renal
# assay_comment: NCI-60 one-dose screen, 48 h (100 = growth as untreated, 0 = no growth, -100 = all killed)
# recorded_conditions: 10 µM unless noted
Compounds without any hit were thinned out: in the full panel of roughly 83,000, 20% have a hit.
Hi there, I'd appreciate the recorded growth for every entry that follows.
Numbers only, in %.

Examples with their reported growth follow.
>  <molecule>
CC12CCC(O)CC1=CCC1C2CCC2(C)C3=NN=CC3CC12 (stereo unspecified)

>  <system>
UO-31 renal

>  <value_unit>
%

>  <growth>
105

$$$$
>  <molecule>
COC1CC(C)C(OC)c2cc(O)cc(c2O)NC(=O)/C(C)=C/C=C\C(C)C(OC(N)=O)/C(C)=C\C(C)C1OC (stereo unspecified)

>  <system>
UO-31 renal

>  <value_unit>
%

>  <growth>
-70.9

$$$$

Here are 3 molecules. What values of growth were reported for them?
1. O=[N+]([O-])c1ccc([I+]c2ccccc2)cc1
2. O=C(CCl)N(c1ccccc1)c1ccccc1
3. CC1=CC(=NC(=O)CBr)C=C/C1=N\S(=O)(=O)c1ccccc1

[46.9, 86.7, 73.1]

Find the recorded growth belonging to Cc1ccc(N2C(=O)C=CC2=O)cc1 and report it.
90
